- System: VDR homodimer (NR concentration 270 nM)
- protocol: PBM binding z-score (relative to random genomic background probes); higher = stronger binding; sequences stand for … in GC…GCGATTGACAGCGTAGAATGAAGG
Listing of recorded PBM binding z-score by entry.
Reply with just the number.

# annotated cases, reported PBM binding z-score shown
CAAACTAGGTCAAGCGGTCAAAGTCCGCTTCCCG; 1.5
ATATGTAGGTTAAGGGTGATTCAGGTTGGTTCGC; 1.41
TCTATTAGTTGAAGAGCAACCGACGAGTCCGTTT; 1.23

In the following, a different sequence is considered.
[Q] PBM binding z-score for TAGCCTAGCTCATTGGGCCAGTATAGTACGCATC ?
[A] -0.87

---

- Test system: RARb homodimer (NR concentration 270 nM)
- protocol: PBM binding z-score (relative to random genomic background probes); higher = stronger binding; sequences stand for … in GC…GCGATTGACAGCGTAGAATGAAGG
The entries below are paired with their reported PBM binding z-score.
Reply with just the number.

[Q] # query: PBM binding z-score | item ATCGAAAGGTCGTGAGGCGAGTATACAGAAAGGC | system: RARb homodimer (NR concentration 270 nM)
[A] 2.55

[Q] RARb homodimer (NR concentration 270 nM) / PBM binding z-score / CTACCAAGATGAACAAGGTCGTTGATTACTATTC : value?
[A] 1.24

[Q] Under RARb homodimer (NR concentration 270 nM): PBM binding z-score value of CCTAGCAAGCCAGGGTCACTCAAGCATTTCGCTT ?
[A] 2.62

[Q] Lookup: PBM binding z-score / RARb homodimer (NR concentration 270 nM) / TTTTGTAGATCAACAGGAGGTTAAGAAAGATCGA
[A] 0.787

---

- Tested on: RARg:RXRa (NR concentration 270 nM, RXRa partner concentration 90 nM)
- protocol: PBM binding z-score (relative to random genomic background probes); higher = stronger binding; sequences stand for … in GC…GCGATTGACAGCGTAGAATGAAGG
# PBM binding z-score per entry

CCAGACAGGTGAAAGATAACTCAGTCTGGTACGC; 0.614
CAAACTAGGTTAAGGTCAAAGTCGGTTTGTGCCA; 5.11
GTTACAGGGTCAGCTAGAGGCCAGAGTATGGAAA; 6.82

[Q] Look at this sequence and give its reported PBM binding z-score. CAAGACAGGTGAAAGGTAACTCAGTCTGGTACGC
[A] 1.58

[Q] Quick one: PBM binding z-score for TCTTGTAGACCAAAGGTTAAGAAAGCCGAAGCCT ?
[A] 1.88

---

- Test system: PPARg DBDmut IVT, anti-PPARg (DBD mutation: PPARg1 K132A/R137A, NR concentration 270 nM)
- protocol: PBM binding z-score (relative to random genomic background probes); higher = stronger binding; sequences stand for … in GC…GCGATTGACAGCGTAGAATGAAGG
We use -0.3 as the dividing line for PBM binding z-score: on or above the line is Fulfilled, below is Not fulfilled.

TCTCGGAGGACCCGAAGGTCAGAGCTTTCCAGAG; Not fulfilled

[Q] Confirm if PBM binding z-score reported for the sequence TAGCCTAGGTCATTTAGGGGCCAGTATAGAAAGC is -0.3 or above.
[A] Fulfilled

[Q] Given CCGACTGGTGCAAAGGTTACCATACTCAGTACGA , state whether its PBM binding z-score is at least -0.3.
[A] Not fulfilled

[Q] Say whether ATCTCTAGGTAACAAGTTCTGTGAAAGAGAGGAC shows PBM binding z-score of -0.3 or more.
[A] Fulfilled

[Q] Given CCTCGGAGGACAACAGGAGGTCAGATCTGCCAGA , state whether its PBM binding z-score is at least -0.3.
[A] Not fulfilled

[Q] Could you please find out whether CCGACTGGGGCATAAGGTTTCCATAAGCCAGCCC has PBM binding z-score that meets -0.3 or exceeds it?
[A] Not fulfilled

[Q] // inclusive: PBM binding z-score at least -0.3? input: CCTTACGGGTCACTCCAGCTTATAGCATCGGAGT
[A] Fulfilled

[Q] Determine whether this sequence has PBM binding z-score no lower than -0.3: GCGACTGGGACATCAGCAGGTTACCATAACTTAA
[A] Not fulfilled

[Q] Identify whether the reported PBM binding z-score of the following sequence is -0.3 or greater: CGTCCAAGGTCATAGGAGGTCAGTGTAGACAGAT
[A] Fulfilled

[Q] Can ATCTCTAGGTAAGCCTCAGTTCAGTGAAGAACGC be said to have PBM binding z-score at or above -0.3?
[A] Fulfilled

[Q] Dear colleague, could you confirm whether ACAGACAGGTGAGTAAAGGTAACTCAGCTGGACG has PBM binding z-score at or above -0.3?
[A] Fulfilled

[Q] Is the recorded value of PBM binding z-score equal to or greater than -0.3 for this sequence? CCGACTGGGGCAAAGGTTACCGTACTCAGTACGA
[A] Not fulfilled

[Q] // inclusive: PBM binding z-score at least -0.3? input: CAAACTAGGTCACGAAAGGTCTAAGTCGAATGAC
[A] Fulfilled

[Q] Confirm if PBM binding z-score reported for the sequence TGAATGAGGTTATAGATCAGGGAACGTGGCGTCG is -0.3 or above.
[A] Fulfilled

[Q] Does PBM binding z-score meet or surpass -0.3 for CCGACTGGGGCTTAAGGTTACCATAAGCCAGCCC ?
[A] Not fulfilled

[Q] Could you verify whether the entry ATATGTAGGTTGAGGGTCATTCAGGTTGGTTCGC shows PBM binding z-score of no less than -0.3?
[A] Fulfilled

[Q] Does the reported PBM binding z-score for GCTAGCAGGCCATTTGGGTCAATCAATGACGGGC fall at or above the -0.3 mark?
[A] Not fulfilled

[Q] Could you please find out whether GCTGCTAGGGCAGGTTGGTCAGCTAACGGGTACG has PBM binding z-score that meets -0.3 or exceeds it?
[A] Not fulfilled

[Q] hey, is PBM binding z-score for this one >= -0.3? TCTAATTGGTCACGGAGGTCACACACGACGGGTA
[A] Fulfilled
